Target: T1, soluble human FcRn (shFcRn) (human, UniProt P55899 24-297; P61769 21-119)
T1 construct: Biotinylated for the ELISA, amine-coupled to a CM5 chip for SPR; also called biotinylated shFcRn
T1 sequence (P55899 24-297 limits assumed, chain 1 of 2): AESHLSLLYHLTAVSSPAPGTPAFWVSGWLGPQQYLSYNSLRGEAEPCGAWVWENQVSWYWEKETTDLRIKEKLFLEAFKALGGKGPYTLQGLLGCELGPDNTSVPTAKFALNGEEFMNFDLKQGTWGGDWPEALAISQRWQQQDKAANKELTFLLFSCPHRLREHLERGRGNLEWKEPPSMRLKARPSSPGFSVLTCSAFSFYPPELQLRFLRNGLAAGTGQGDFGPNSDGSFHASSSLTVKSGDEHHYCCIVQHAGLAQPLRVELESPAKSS
T1 sequence (P61769 21-119 limits assumed, chain 2 of 2): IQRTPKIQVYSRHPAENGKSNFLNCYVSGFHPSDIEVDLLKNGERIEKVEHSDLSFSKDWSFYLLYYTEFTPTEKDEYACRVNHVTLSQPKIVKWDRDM
Assay: IgG competition ELISA
Bridge positions count the residues as written; N and C are the ends. Square brackets hold non-standard residues; d marks the D form. Ends that are not written are not given here. Phe(4-NH2) = Nc1ccc(C[C@H](N)C(=O)O)cc1; Pen = CC(C)(S)[C@H](N)C(=O)O

>  <BINDER>
QRFCTGHFGGLXPCNGP (Pen 4; 2-pyridylAla 12 (printed 2-pvridylAla); disulfide 4-14; C-terminal amide) [Peptide No. 66]

>  <READOUT_RELATION>
>

>  <IC50, µM>
125

$$$$
>  <BINDER>
QRF[Pen]TGHFGGL[Phe(4-NH2)]PCNGP-NH2 (disulfide 4-14; N-terminus assumed; SMILES CC(C)C[C@@H]1NC(=O)CNC(=O)CNC(=O)[C@H](Cc2ccccc2)NC(=O)[C@H](Cc2c[nH]cn2)NC(=O)CNC(=O)[C@H]([C@@H](C)O)NC(=O)[C@@H](NC(=O)[C@H](Cc2ccccc2)NC(=O)[C@H](CCCNC(=N)N)NC(=O)[C@@H](N)CCC(N)=O)C(C)(C)SSC[C@@H](C(=O)N[C@@H](CC(N)=O)C(=O)NCC(=O)N2CCC[C@H]2C(N)=O)NC(=O)[C@@H]2CCCN2C(=O)[C@H](Cc2ccc(N)cc2)NC1=O) [Peptide No. 63]

>  <READOUT_RELATION>
=

>  <IC50, µM>
110

$$$$
>  <BINDER>
QRF[Pen]TGHFGGLYPCNGP-NH2 (disulfide 4-14; N-terminus assumed; SMILES CC(C)C[C@@H]1NC(=O)CNC(=O)CNC(=O)[C@H](Cc2ccccc2)NC(=O)[C@H](Cc2c[nH]cn2)NC(=O)CNC(=O)[C@H]([C@@H](C)O)NC(=O)[C@@H](NC(=O)[C@H](Cc2ccccc2)NC(=O)[C@H](CCCNC(=N)N)NC(=O)[C@@H](N)CCC(N)=O)C(C)(C)SSC[C@@H](C(=O)N[C@@H](CC(N)=O)C(=O)NCC(=O)N2CCC[C@H]2C(N)=O)NC(=O)[C@@H]2CCCN2C(=O)[C@H](Cc2ccc(O)cc2)NC1=O) [Peptide No. 32]

>  <READOUT_RELATION>
=

>  <IC50, µM>
2

$$$$
>  <BINDER>
QRFCTGHFGGLXPCNGP (Pen 4; 3-pyridylAla 12; disulfide 4-14; C-terminal amide) [Peptide No. 67]

>  <READOUT_RELATION>
=

>  <IC50, µM>
92

$$$$

Data provenance is patent US20110059889A1.
